# System: Klebsiella pneumoniae
# PROTOCOL_NOTES: Antibacterial activity against Klebsiella pneumoniae ATCC 13833 assessed as bacterial growth inhibition by agar diffusion assay
# Type: functional

| MOLECULE | MIC |
| --- | --- |
| CC(C)(C)n1cc(C(=O)O)c(=O)c2cc(F)c(Br)cc21 | 1 µg/mL |
| CCCCCCc1ccc(OCCCCCCCC(=O)NCCO)cc1O | > 512 µg/mL |
| CC(C)(C)n1cc(C(=O)O)c(=O)c2cc(F)c(-c3cccnc3)cc21 | 0.25 µg/mL |
| Cc1c(C(=O)N(C)CCN(C)C)nn(-c2ccc(Cl)cc2)c1-n1cccc1 | > 512 µg/mL |
| CCOC(=O)c1cn2c3c(cccc3c1=O)OCC2CC (stereo unspecified) | 128 µg/mL |
| CCCCCc1cc(OC)cc(OCCCCCCCC(=O)NCCO)c1 | > 512 µg/mL |
| CCCCCCC(C)(C)c1cc(O)cc(OCCCCCCCC(=O)NCCO)c1 | > 512 µg/mL |
| CCCCCc1cc(O)cc(OCCCCCCCCCCC(=O)NCCO)c1 | > 512 µg/mL |
| COc1ccc(-c2cc3c(cc2F)c(=O)c(C(=O)O)cn3C(C)(C)C)cc1 | 16 µg/mL |
| CCCCCc1cc(O)cc(OCCCCCCCCCCC(=O)NC(CO)CO)c1 | > 512 µg/mL |
| CC(C)c1ccc2c(c1)c(O)c(C(C)C)c(=O)n2CC(C)(C)C | > 512 µg/mL |
